Test system: HEK-293T
test_summary: Multiplex assay against HEK293T
Format: toxicity, cell-based
condition_parameters: human, 48 h, 10 µM, compound concentration 10 uM, replicate 2
measure: Population Hoechst High Intensity Objects (%)
Reply numerically in %, unit not repeated.

Example entries begin here.
| molecule | test_result |
| --- | --- |
| CN1C(=O)[C@@H](NC(=O)c2cc3ccccc3[nH]2)N=C(c2ccccc2)c2ccccc21 [DEVAZEPIDE] | 5 |
| N#CCNC(=O)c1ccc(-c2ccnc(Nc3ccc(N4CCOCC4)cc3)n2)cc1 | 4 |
| Cc1ccc(S(=O)(=O)NC2c3ccccc3Oc3ccccc32)cc1 | 2 |
| CCCc1cc(C)[nH]c(=O)c1CNC(=O)c1cc(-c2ccc(N3CCN(C(C)C)CC3)nc2)cc2c1cnn2C(C)C | 27 |

Reported Population Hoechst High Intensity Objects (%), molecule `C[C@@H](Oc1cc(-n2cnc3ccc(CN4CCN(C)CC4)cc32)sc1C(N)=O)c1ccccc1C(F)(F)F` : ____
10

Reported Population Hoechst High Intensity Objects (%), molecule `Oc1cccc(-c2nc(N3CCOCC3)c3oc4ncccc4c3n2)c1` : ____
22

Reported Population Hoechst High Intensity Objects (%), molecule `Cl.NC[C@@H]1O[C@H](C23CC4CC(CC(C4)C2)C3)Cc2c1ccc(O)c2O` : ____
16

Reported Population Hoechst High Intensity Objects (%), molecule CCCCCNC(=N)N/N=C/c1c[nH]c2ccc(OC)cc12.O=C(O)/C=C\C(=O)O [TEGASEROD MALEATE] : ____
6

====

System: Fibroblast
test_summary: Multiplex assay against human fibroblast
Assay type: toxicity, cell-based
condition_parameters: 24 h, 1 µM, compound concentration 1 uM, replicate 2
# note: exactly 60% is not below, so it is Condition not met; use Condition met for Population Apoptotic (%) strictly under it

Known results for compounds:
| compound | category_label |
| --- | --- |
| CC(C)c1cc(Nc2nc(N3CCC[C@H](N)C3)ncc2C(N)=O)cc(C(C)C)n1 | Condition met |
| C=CC(=O)Nc1cc(-n2c(=O)ccc3cnc4ccc(-c5ccc(NS(C)(=O)=O)cc5)cc4c32)ccc1C | Condition met |
| CCCCN(CC)c1nc(C)nc2c1c(C)cn2-c1c(C)cc(C)cc1C.Cl | Condition met |
| CN1C(=O)[C@@H](NC(=O)c2cc3ccccc3[nH]2)N=C(c2ccccc2)c2ccccc21 [DEVAZEPIDE] | Condition met |
| NC(=O)c1ccc2nc(-c3ccc(C4(N)CCC4)cc3)c(-c3ccccc3)n2n1 [BAY-1125976] | Condition not met |

Regarding `CCOC(=O)CCNc1cc(N2CCc3ccccc3CC2)nc(-c2ccccn2)n1` , kindly confirm whether its Population Apoptotic (%) is beneath 60%.
Condition not met

Regarding CNC(=O)Nc1ccc2c(c1)CC[C@@]21OC(=O)N(CC(=O)N(Cc2ccc(F)cc2)[C@@H](C)C(F)(F)F)C1=O [A-485] , kindly confirm whether its Population Apoptotic (%) is beneath 60%.
Condition met

====

Test system: U2OS
test_summary: Multiplex assay against U2OS
Type: toxicity, cell-based
condition_parameters: human, 12 h, 10 µM, compound concentration 10 uM, replicate 1
measure: Population Membrane Permeable-Phenotype (%)
Reply numerically in %, unit not repeated.

Example entries begin here.
| molecule | test_result |
| --- | --- |
| CC(C)[C@H](CO)Nc1nc(Nc2cccc(Cl)c2)c2ncn(C(C)C)c2n1 | 39 |
| CC(Cc1ccc(O)c(O)c1)C(C)Cc1ccc(O)c(O)c1 (stereo not given) [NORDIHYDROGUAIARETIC ACID] | 7 |
| Cl.NC[C@@H]1O[C@H](C23CC4CC(CC(C4)C2)C3)Cc2c1ccc(O)c2O | 3 |
| CCCCCNC(=N)N/N=C/c1c[nH]c2ccc(OC)cc12.O=C(O)/C=C\C(=O)O [TEGASEROD MALEATE] | 100 |

Turning now to a further molecule:
Reported Population Membrane Permeable-Phenotype (%), molecule `CCOC(=O)CCNc1cc(N2CCc3ccccc3CC2)nc(-c2ccccn2)n1` : ____
11

====

Listed compounds paired with reported Population Healthy Nuclei (%)
System: U2OS
test_summary: Multiplex assay against U2OS
Format: toxicity, cell-based
condition_parameters: human, 48 h, 1 µM, compound concentration 1 uM, replicate 1
Reply numerically in %, unit not repeated.

| compound | measure | test_result |
| --- | --- | --- |
| CC(C)c1cc(Nc2nc(N3CCC[C@H](N)C3)ncc2C(N)=O)cc(C(C)C)n1 | Population Healthy Nuclei (%) | 45 |
| CC(/C=C1\SC(=S)N(CCCC(=O)Nc2ccc(C(=O)O)c(O)c2)C1=O)=C\c1ccccc1 | Population Healthy Nuclei (%) | 92 |
| CN1C(=O)[C@@H](NC(=O)c2cc3ccccc3[nH]2)N=C(c2ccccc2)c2ccccc21 [DEVAZEPIDE] | Population Healthy Nuclei (%) | 82 |
| CCCc1cc(C)[nH]c(=O)c1CNC(=O)c1cc(-c2ccc(N3CCN(C(C)C)CC3)nc2)cc2c1cnn2C(C)C | Population Healthy Nuclei (%) | 56 |

Turning now to a further compound:
Reported Population Healthy Nuclei (%), compound CC(C)[C@H](CO)Nc1nc(Nc2cccc(Cl)c2)c2ncn(C(C)C)c2n1 [PURVALANOLA] : ____
82

====

System: U2OS
test_summary: Multiplex assay against U2OS
Assay type: toxicity, cell-based
condition_parameters: human, 24 h, 10 µM, compound concentration 10 uM, replicate 1
Please note: YES applies when Population Pyknosed Nuclei (%) is 10% or greater, and NO applies otherwise.

Known results for molecules:
| molecule | category_label |
| --- | --- |
| CC[C@@]1(O)C(=O)OCc2c1cc1n(c2=O)Cc2cc3ccccc3nc2-1 | YES |
| Cl.Cn1c2c(c3ccc(Cl)c(Cl)c31)C(C#N)C1(CCNCC1)NC2=O (centres undefined) | YES |
| CC(/C=C1\SC(=S)N(CCCC(=O)Nc2ccc(C(=O)O)c(O)c2)C1=O)=C\c1ccccc1 | NO |
| CN(c1cc(C(F)(F)F)nc(OCCC(=O)O)n1)c1cccc2c1CCC2 | NO |
| CC(C)c1cc(Nc2nc(N3CCC[C@H](N)C3)ncc2C(N)=O)cc(C(C)C)n1 | YES |

Evaluate `CCCCN(CC)c1nc(C)nc2c1c(C)cn2-c1c(C)cc(C)cc1C.Cl` : Population Pyknosed Nuclei (%) at minimum 10%?
YES

Evaluate `CCOc1ccn(-c2ccc(F)cc2)c(=O)c1C(=O)Nc1ccc(Oc2ccnc(N)c2Cl)c(F)c1` : Population Pyknosed Nuclei (%) at minimum 10%?
NO

Evaluate CN1C(=O)[C@@H](NC(=O)c2cc3ccccc3[nH]2)N=C(c2ccccc2)c2ccccc21 [DEVAZEPIDE] : Population Pyknosed Nuclei (%) at minimum 10%?
YES

Evaluate `Cc1c(Nc2ccc(S(=O)(=O)N3CCN(C)CC3)cc2F)nc2ccc(Nc3cnn(C4CC4)c3)cn2c1=O` : Population Pyknosed Nuclei (%) at minimum 10%?
NO

====

Listed compounds paired with reported Population Mitotic Cells (%)
Tested on: Fibroblast
test_summary: Multiplex assay against human fibroblast
Format: toxicity, cell-based
condition_parameters: 12 h, 10 µM, compound concentration 10 uM, replicate 1
Reply numerically in %, unit not repeated.

Example entries begin here.
| compound | measurement_target | test_result |
| --- | --- | --- |
| CC(Cc1ccc(O)c(O)c1)C(C)Cc1ccc(O)c(O)c1 (centres undefined) [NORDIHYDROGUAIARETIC ACID] | Fibroblast | 12 |
| CC[C@@]1(O)C(=O)OCc2c1cc1n(c2=O)Cc2cc3ccccc3nc2-1 | Fibroblast | 12 |
| CC(C)c1cc(Nc2nc(N3CCC[C@H](N)C3)ncc2C(N)=O)cc(C(C)C)n1 | Fibroblast | 40 |
| CC[C@H](Nc1ncnc2[nH]cnc12)c1nc2cccc(F)c2c(=O)n1-c1ccccc1 | Fibroblast | 41 |
| Cc1ccc(S(=O)(=O)NC2c3ccccc3Oc3ccccc32)cc1 | Fibroblast | 20 |
| Cc1ccc(NC(=O)Nc2cc(C(F)(F)F)ccc2F)cc1Nc1ccc2c(c1)NC(=O)/C2=C\c1ccc[nH]1 | Fibroblast | 33 |

Reported Population Mitotic Cells (%), compound `C=CC(=O)Nc1cc(-n2c(=O)ccc3cnc4ccc(-c5ccc(NS(C)(=O)=O)cc5)cc4c32)ccc1C` : ____
48

Reported Population Mitotic Cells (%), compound `CCCc1cc(C)[nH]c(=O)c1CNC(=O)c1cc(-c2ccc(N3CCN(C(C)C)CC3)nc2)cc2c1cnn2C(C)C` : ____
51

Reported Population Mitotic Cells (%), compound `Cc1c(P(=S)(c2ccccc2)c2ccccc2)n2ccccc2[n+]1C/C=C/c1ccccc1.[Br-]` : ____
26

====

Listed compounds paired with reported Population Hoechst High Intensity Objects (%)
System: Fibroblast
test_summary: Multiplex assay against human fibroblast
Type: toxicity, cell-based
condition_parameters: 12 h, 1 µM, compound concentration 1 uM, replicate 2
Reply numerically in %, unit not repeated.

Example entries begin here.
| compound | test_result |
| --- | --- |
| CN(c1cc(C(F)(F)F)nc(OCCC(=O)O)n1)c1cccc2c1CCC2 | 12 |
| Cl.NC[C@@H]1O[C@H](C23CC4CC(CC(C4)C2)C3)Cc2c1ccc(O)c2O | 3 |
| Cc1ccc(NC(=O)Nc2cc(C(F)(F)F)ccc2F)cc1Nc1ccc2c(c1)NC(=O)/C2=C\c1ccc[nH]1 | 50 |
| N#CCNC(=O)c1ccc(-c2ccnc(Nc3ccc(N4CCOCC4)cc3)n2)cc1 | 8 |

Reported Population Hoechst High Intensity Objects (%), compound Cl.Cn1c2c(c3ccc(Cl)c(Cl)c31)C(C#N)C1(CCNCC1)NC2=O (configuration not stated) : ____
32

Reported Population Hoechst High Intensity Objects (%), compound `CC[C@@H]1C(=O)N(C)c2cnc(Nc3ccc(C(=O)NC4CCN(C)CC4)cc3OC)nc2N1C1CCCC1` : ____
51

Reported Population Hoechst High Intensity Objects (%), compound CN1C(=O)[C@@H](NC(=O)c2cc3ccccc3[nH]2)N=C(c2ccccc2)c2ccccc21 [DEVAZEPIDE] : ____
5
